Consider the following compounds; for each one, report its inhibition at 20 µM.
tested on: mouse femoral head cartilage; assay: Mouse explant assay (IL-1α induced GAG release); type: cell-based; details: inhibition of GAG release, IL-1α 1 ng/ml, 72 hours, compound 20 μM
Report only the number, with the unit % understood.

Request: Would you mind telling me what inhibition at 20 µM value was observed for `C[C@H]1CN(C(=O)CC[C@@]2(C3CC3)NC(=O)NC2=O)CCc2ccc(Cl)cc21` ?
Response: 100

Request: // inhibition at 20 µM lookup, key: CC1CN(C(=O)CC[C@@]2(C3CC3)NC(=O)NC2=O)CCc2ccc(Cl)cc21 (some centres unmarked)
Response: 63

Request: So what does the record say about inhibition at 20 µM for `COc1ccc2c(c1)CCN(C(=O)CC[C@@]1(C3CC3)NC(=O)NC1=O)CC2` ?
Response: 51

Request: Tell me the measured inhibition at 20 µM of `O=C1NC(=O)[C@](CCC(=O)N2CCc3ccccc3CC2)(C2CC2)N1` , please.
Response: 55

Request: Quick one: inhibition at 20 µM for `O=C1NC(=O)[C@](CCC(=O)N2Cc3ccc(C(F)(F)F)cc3C2)(C2CC2)N1` ?
Response: 61

Request: Reported inhibition at 20 µM for `O=C1NC(=O)[C@](CCC(=O)N2CCc3ccc(C(F)(F)F)cc3CC2)(C2CC2)N1` : what is it?
Response: 96

Request: Look at this compound and give its reported inhibition at 20 µM. `[2H]C1([2H])c2cc(Cl)c(Cl)cc2C([2H])([2H])N1C(=O)CC[C@@]1(C2CC2)NC(=O)NC1=O`
Response: 73

Request: So what's the measured inhibition at 20 µM for this one? `O=C1NC(=O)[C@](CCC(=O)N2Cc3cc(Cl)c(C(F)(F)F)cc3C2)(C2CC2)N1`
Response: 52

* * *

Target: ADAMTS-5 recombinant protein (Homo sapiens (Human), UniProt Q9UNA0)
Sequence (Q9UNA0 262-622): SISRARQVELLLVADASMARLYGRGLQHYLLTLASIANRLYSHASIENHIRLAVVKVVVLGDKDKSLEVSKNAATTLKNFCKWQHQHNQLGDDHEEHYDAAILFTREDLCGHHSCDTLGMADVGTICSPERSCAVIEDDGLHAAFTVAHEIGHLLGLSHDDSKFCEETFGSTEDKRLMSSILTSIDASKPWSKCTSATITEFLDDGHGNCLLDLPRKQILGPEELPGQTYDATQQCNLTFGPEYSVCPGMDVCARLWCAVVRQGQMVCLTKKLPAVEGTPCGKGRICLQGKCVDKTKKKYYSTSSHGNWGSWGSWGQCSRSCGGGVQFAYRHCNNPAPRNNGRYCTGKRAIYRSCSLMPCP
Assay: In vitro ELISA of ADAMTS-5 activity (Aggrecan-IGD enzymatic assay)
Type: biochemical
Details: aggrecan-IGD substrate, ARGSVIL-peptide ELISA, 37° C. 45 minutes
Protocol: In this assay, the enzymatic activity of recombinant ADAMTS-5 protein (catalog #2198-AD, R&D Systems) was assayed with a protein substrate, the aggrecan IGD protein. […] The enzymatic product ARGSVIL-peptide was detected using an ELISA kit from BioTEZ (catalog #30510111). […] A standard curve of the ELISA assay was generated in GraphPad Prism using Sigmoidal 4PL function and the corresponding peptide concentrations were calculated based on the standard curve. […]
Kindly state log10 of IC50 for each of the entries shown.
For clarity, the numbers are log10 values of IC50 expressed in nM.

Request: // returns reported log10 of IC50 for input O=C1NC(=O)C(CCC(=O)N2Cc3cc(Cl)c(C(F)(F)F)cc3C2)(c2ncccn2)N1 (centres unmarked)
Response: 2.32

Request: What does the record list as log10 of IC50 for CC1c2cc(Cl)c(Cl)cc2CN1C(=O)CC[C@@]1(C2CC2)NC(=O)NC1=O (some centres unmarked) ?
Response: 1.92

Request: Field request: log10 of IC50 | item: `O=C1NC(=O)[C@](CCC(=O)N2CCc3ccc(F)cc3CC2)(C2CC2)N1`
Response: 1.71

Request: Would you mind telling me what log10 of IC50 value was observed for `O=C1NC(=O)[C@](CCC(=O)N2Cc3cc(Cl)c(C(F)(F)F)cc3C2)(C2CC2)N1` ?
Response: 1.96

Request: Please report the recorded log10 of IC50 for `O=C1NC(=O)[C@](CCC(=O)N2Cc3cc(Br)c(C(F)(F)F)cc3C2)(C2CC2)N1` .
Response: 1.66

Request: Tell me the measured log10 of IC50 of Cn1ccnc1C1(CCC(=O)N2Cc3ccc(C(F)(F)F)cc3C2)NC(=O)NC1=O (centres unmarked) , please.
Response: 2.46

Request: Value lookup for log10 of IC50; key = `O=C1NC(=O)[C@](CCC(=O)N2CCc3cc(C(F)(F)F)ccc3C2)(C2CC2)N1`
Response: 2.81

Request: Entry `O=C1NC(=O)[C@](CCC(=O)N2Cc3ccccc3C2)(C2CC2)N1` : reported log10 of IC50 = ?
Response: 2.75

Request: Entry Cn1ccnc1C1(CCC(=O)N2Cc3cc(Cl)c(C(F)(F)F)cc3C2)NC(=O)NC1=O (centres unmarked) : reported log10 of IC50 = ?
Response: 1.67

Request: # log10 of IC50 lookup, item O=C1NC(=O)C(CC(COCc2ccccc2)C(=O)N2Cc3ccc(C(F)(F)F)cc3C2)(C2CC2)N1 (centres unmarked)
Response: 1.49

Request: Returns the measured log10 of IC50 for the input molecule. Input: CC1c2cc(C(F)(F)F)c(Cl)cc2CN1C(=O)CC[C@@]1(C2CC2)NC(=O)NC1=O (some centres unmarked)
Response: 1.26

Request: May I ask what log10 of IC50 has been recorded for `O=C1NC(=O)[C@](CCC(=O)N2CCc3ccccc3CC2)(C2CC2)N1` ?
Response: 1.75

Request: Which log10 of IC50 is reported for this molecule? COc1cc2c(cc1Cl)CN(C(=O)C(C)C[C@@]1(C3CC3)NC(=O)NC1=O)C2 (some centres unmarked)
Response: 1.56

Request: // returns reported log10 of IC50 for input CC(C[C@@]1(C2CC2)NC(=O)NC1=O)C(=O)N1Cc2ccc(C(F)(F)F)cc2C1 (some centres unmarked)
Response: 1.75

Request: Entry CC1CN(C(=O)CC[C@@]2(C3CC3)NC(=O)NC2=O)CCc2ccc(Cl)c(Cl)c21 (some centres unmarked) : reported log10 of IC50 = ?
Response: 1.46

Request: What value of measured log10 of IC50 is listed for CC(C[C@@]1(C2CC2)NC(=O)NC1=O)C(=O)N1Cc2cc(Cl)c(Cl)cc2C1 (mixture of isomers) ?
Response: 1.23

Request: Report log10 of IC50 for Cc1cc(C2(CCC(=O)N3Cc4cc(Cl)c(C(F)(F)F)cc4C3)NC(=O)NC2=O)no1 (centres unmarked) please.
Response: 2.04

Request: Tell me the measured log10 of IC50 of [2H]C1([2H])c2cc(Cl)c(C(F)(F)F)cc2C(C)N1C(=O)CC[C@@]1(C2CC2)NC(=O)NC1=O (some centres unmarked) , please.
Response: 1.46

Request: Form field: reported log10 of IC50 of `COc1cc2c(cc1Cl)CN(C(=O)CC[C@@]1(C3CC3)NC(=O)NC1=O)C2`
Response: 2.23

Request: What log10 of IC50 value was documented for this molecule, [2H]C1([2H])c2cc(Cl)c(Cl)cc2C(C)N1C(=O)CC[C@@]1(C2CC2)NC(=O)NC1=O (some centres unmarked) ?
Response: 1.67

Request: Which log10 of IC50 value belongs to `COc1ccc2c(c1)CN(C(=O)CC[C@@]1(C3CC3)NC(=O)NC1=O)C2` ?
Response: 2.92

Request: Field request: log10 of IC50 | item: `C[C@@H]1c2cc(Cl)c(Cl)cc2CN1C(=O)CC[C@@]1(C2CC2)NC(=O)NC1=O`
Response: 1.28

Request: Would you kindly share the measured log10 of IC50 for `Cc1cc2c(cc1Cl)CN(C(=O)CC[C@@]1(C3CC3)NC(=O)NC1=O)C2` ?
Response: 2.28

Request: Give the measured log10 of IC50 of `O=C1NC(=O)[C@](CCC(=O)N2Cc3ccc(C(F)F)cc3C2)(C2CC2)N1` .
Response: 1.68

Request: Need log10 of IC50, item `O=C1NC(=O)[C@](CCC(=O)N2Cc3ccc(C(F)(F)F)cc3C2)(C2CC2)N1`
Response: 2.15

Request: Could you tell me which log10 of IC50 is on file for CC1CN(C(=O)CC[C@@]2(C3CC3)NC(=O)NC2=O)CCc2ccc(Cl)cc21 (some centres unmarked) ?
Response: 2.11

Request: Need log10 of IC50, item `COc1ccc2c(c1)CCN(C(=O)CC[C@@]1(C3CC3)NC(=O)NC1=O)CC2`
Response: 2.38

Request: // log10 of IC50 lookup, key: CCC(C[C@@]1(C2CC2)NC(=O)NC1=O)C(=O)N1Cc2ccc(C(F)(F)F)cc2C1 (some centres unmarked)
Response: 1.52

Request: Query (molecule): Cc1nc(C2(CCC(=O)N3Cc4cc(Cl)c(C(F)(F)F)cc4C3)NC(=O)NC2=O)co1 (centres unmarked) ; field requested: log10 of IC50
Response: 2.08

Request: Suppose we examine the molecule `O=C1NC(=O)[C@](CCC(=O)N2Cc3ccc(Cl)cc3C2)(C2CC2)N1` ; what log10 of IC50 value has been reported?
Response: 2.93

Request: What value of measured log10 of IC50 is listed for O=C1NC(=O)C(CC(CO)C(=O)N2Cc3cc(Cl)c(Cl)cc3C2)(C2CC2)N1 (centres unmarked) ?
Response: 1.23

Request: Need log10 of IC50, item `O=C1NC(=O)[C@](CCC(=O)N2Cc3cc(F)c(C(F)(F)F)cc3C2)(C2CC2)N1`
Response: 1.81
